compounds and their reported pIC50
system: J774.1; test: Anti-inflammatory activity against mouse J774A.1 macrophage assessed as reduction in LPS-induced LDH release incubated for 1 hr in presence of nigericin by LDH assay; type: functional, cell-based; conditions: J774.1, 1 h
pIC50: −log10 of the molar value.

COMPOUND	pIC50
CC(C)=CCc1cc(C2=C(O)/C(=C/c3ccc4c(c3)C[C@H](C(C)(C)O)O4)OC2=O)c(O)cc1O	5.31
CC(C)=CCc1cc(C2=C(O)/C(=C/c3ccc4c(c3)CC(O)C(C)(C)O4)OC2=O)c(O)cc1O (stereo not given)	5.55
CC(C)=CCc1cc(C2=C(O)/C(=C/c3ccc(O)c(CC(O)C(C)(C)O)c3)OC2=O)c(O)cc1O (stereo not given)	5.13
CC(C)=CCc1cc(/C=C2\OC(=O)C(c3cc(CC=C(C)C)c(O)cc3O)=C2O)ccc1O	5.52
CC(C)=CCc1cc(/C=C2\OC(=O)C(c3ccc(O)cc3O)=C2O)ccc1O	5.62
CC(C)=CCc1cc(/C=C2\OC(=O)C(c3cc(CCC(C)(C)O)c(O)cc3O)=C2O)ccc1O	5.48
CC(C)=CCc1cc(C2=C(O)/C(=C/c3ccc(O)c(CCC(C)(C)O)c3)OC2=O)c(O)cc1O	5.51
CC(C)(O)C1Cc2cc(/C=C3\OC(=O)C(c4cc5c(cc4O)OC(C)(C)C(O)C5)=C3O)ccc2O1 (stereo not given)	6.15
CC(C)=CCc1cc(/C=C2\OC(=O)C(c3cc4c(cc3O)OC(C)(C)C(O)C4)=C2O)ccc1O (stereo not given)	5.38
CC(C)=CCc1cc(/C=C2\OC(=O)C(c3cc4c(cc3O)OC(C)(C)CC4)=C2O)ccc1O	6.10

###

test system: J774.1; assay: Anti-inflammatory activity against mouse J774A.1 macrophage assessed as reduction in LPS-induced LDH release at 10 uM incubated for 1 hr in presence of nigericin by LDH assay; type: functional, cell-based
Activity calls are given as the source filed them. The rule behind the calls is not given here.

COMPOUND	inhibition
CC(C)=CCc1cc(/C=C2\OC(=O)C(c3ccc(O)cc3O)=C2O)ccc1O	Active
CC(C)=CCc1cc(/C=C2\OC(=O)C(c3cc4c(cc3O)OC(C)(C)C(O)C4)=C2O)ccc1O (stereo not given)	Active
CC(C)=CCc1cc(C2=C(O)/C(=C/c3ccc4c(c3)C[C@H](C(C)(C)O)O4)OC2=O)c(O)cc1O	Active
CC(C)=CCc1cc(C2=C(O)/C(=C/c3ccc4c(c3)CC(O)C(C)(C)O4)OC2=O)c(O)cc1O (stereo not given)	Active
CC(C)(O)C1Cc2cc(/C=C3\OC(=O)C(c4cc5c(cc4O)OC(C)(C)C(O)C5)=C3O)ccc2O1 (stereo not given)	Active
CC(C)=CCc1cc(/C=C2\OC(=O)C(c3cc(CCC(C)(C)O)c(O)cc3O)=C2O)ccc1O	Active
CC(C)=CCc1cc(/C=C2\OC(=O)C(c3cc(CC=C(C)C)c(O)cc3O)=C2O)ccc1O	Active
CC(C)=CCc1cc(/C=C2\OC(=O)C(c3cc4c(cc3O)OC(C)(C)CC4)=C2O)ccc1O	Active
CC(C)=CCc1cc(C2=C(O)/C(=C/c3ccc(O)c(CCC(C)(C)O)c3)OC2=O)c(O)cc1O	Active
CC(C)=CCc1cc(C2=C(O)/C(=C/c3ccc(O)c(CC(O)C(C)(C)O)c3)OC2=O)c(O)cc1O (stereo not given)	Active
